System: NCI-H460 lung
Outcomes: active, inactive

[[record]]
compound = "O=C(Nc1ccc(Cl)c(Cl)c1)c1cccc(NC2=C(Cl)C(=O)N(Cc3ccccc3)C2=O)c1"
class = "inactive"

[[record]]
compound = "CC(C)[C@]12O[C@H]1[C@@H]1O[C@]13[C@]1(O[C@H]1C[C@H]1C4=C(CC[C@@]13C)C(=O)OC4)[C@@H]2O"
class = "active"

[[record]]
compound = "FC(F)(F)c1nc(N2CCCC2)ncc1-c1nnnn1-c1ccc(Cl)cc1"
class = "inactive"

[[record]]
compound = "CC1(C)N=C(N)N=C(N)N1c1cccc(CCCCc2cccc(S(=O)(=O)F)c2)c1"
class = "active"

[[record]]
compound = "C/C(=N\\NC(=O)c1sc(=S)n(C)c1N)c1cc2ccccc2o1"
class = "inactive"

[[record]]
compound = "Clc1ccc(CSC(Cn2ccnc2)c2ccc(Cl)cc2Cl)cc1 (configuration not stated)"
class = "inactive"

[[record]]
compound = "COc1ccccc1NC(=O)c1sc2nc3c(cc2c1N)C(=O)CCC3"
class = "inactive"

[[record]]
compound = "COc1cc2c3c(n(CCCN)c(=O)c2cc1OC)-c1ccccc1C3=O"
class = "active"

[[record]]
compound = "Cc1ccc([N+](=O)[O-])cc1NC(=O)Nc1cccc(F)c1"
class = "inactive"

[[record]]
compound = "CCN(CC)CCOCC[C@H]1CC[C@H]2[C@@H]3[C@H](C)Cc4cc(OS(N)(=O)=O)ccc4[C@H]3CC[C@]12C"
class = "inactive"

[[record]]
compound = "NCCNc1c2c(c(NCCN)c3c(CO)c[nH]c13)C(=O)c1ccccc1C2=O"
class = "inactive"

[[record]]
compound = "C=CC[n+]1c(/C=C/C=C2\\N(C)c3ccccc3C2(C)C)sc2ccc(OC)cc21"
class = "active"

[[record]]
compound = "CCOC(=O)c1c2c(c(O)c3ccccc3c(O)n(Cc3ccc(OC)cc3)c1C)C(=O)C=CC2=O"
class = "inactive"

[[record]]
compound = "Nc1ccc2c(c1)C(=O)C(=O)c1c-2nc2ccccn12"
class = "inactive"

[[record]]
compound = "Cc1nc(-c2cccc(Nc3nc(-c4ccc(Cl)cc4)cs3)c2)cs1"
class = "inactive"

[[record]]
compound = "CCCCC[C@H](O)/C=C/[C@@H]1[C@@H](C/C=C\\CCCC(=O)O)[C@@H](O)C[C@H]1O"
class = "inactive"

[[record]]
compound = "O=C(NC1CCN(Cc2ccccc2)CC1)c1cc(-c2ccncc2)nc2ccc(Cl)cc12"
class = "inactive"

